EXPERIMENTAL_PROTOCOL: chemical genetic growth profiling, strain panel (AID 1159580);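 note: tested at 20 µM; growth read once vehicle control cultures reached saturation at 30 °C; 1 = growth at the plate median or of vehicle wells; lower values mean less growth of the strain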
ASSAY_CONTEXT: S. cerevisiae deletion strains, growth OD, locus YER015W, strain faa2, hits give low values
The whole screen tested about 5,500 compounds, of which about 2,000 (36%) were called active. Roughly 18% stayed inconclusive and do not appear here. Some of the results follow.
Listed molecules paired with reported normalized growth
PROPERTY_MEASURED: normalized growth

[[record]]
mol_smiles = "COc1cc(O)c(C(C)=O)c(OC)c1"
property_measured = "normalized growth"
test_result = 1.01

[[record]]
mol_smiles = "CCCCC/C=C\\C/C=C\\C/C=C\\C/C=C\\CCCC(=O)O"
property_measured = "normalized growth"
test_result = 0.973

[[record]]
mol_smiles = "COc1c(O)cc(O)cc1O"
property_measured = "normalized growth"
test_result = 1

[[record]]
mol_smiles = "COc1cc(OC)c(C(C)=O)c(O)c1C"
property_measured = "normalized growth"
test_result = 0.955

